TEST SYSTEM: SMARCA4 (Homo sapiens, UniProt P51532)
Sequence (P51532 whole entry): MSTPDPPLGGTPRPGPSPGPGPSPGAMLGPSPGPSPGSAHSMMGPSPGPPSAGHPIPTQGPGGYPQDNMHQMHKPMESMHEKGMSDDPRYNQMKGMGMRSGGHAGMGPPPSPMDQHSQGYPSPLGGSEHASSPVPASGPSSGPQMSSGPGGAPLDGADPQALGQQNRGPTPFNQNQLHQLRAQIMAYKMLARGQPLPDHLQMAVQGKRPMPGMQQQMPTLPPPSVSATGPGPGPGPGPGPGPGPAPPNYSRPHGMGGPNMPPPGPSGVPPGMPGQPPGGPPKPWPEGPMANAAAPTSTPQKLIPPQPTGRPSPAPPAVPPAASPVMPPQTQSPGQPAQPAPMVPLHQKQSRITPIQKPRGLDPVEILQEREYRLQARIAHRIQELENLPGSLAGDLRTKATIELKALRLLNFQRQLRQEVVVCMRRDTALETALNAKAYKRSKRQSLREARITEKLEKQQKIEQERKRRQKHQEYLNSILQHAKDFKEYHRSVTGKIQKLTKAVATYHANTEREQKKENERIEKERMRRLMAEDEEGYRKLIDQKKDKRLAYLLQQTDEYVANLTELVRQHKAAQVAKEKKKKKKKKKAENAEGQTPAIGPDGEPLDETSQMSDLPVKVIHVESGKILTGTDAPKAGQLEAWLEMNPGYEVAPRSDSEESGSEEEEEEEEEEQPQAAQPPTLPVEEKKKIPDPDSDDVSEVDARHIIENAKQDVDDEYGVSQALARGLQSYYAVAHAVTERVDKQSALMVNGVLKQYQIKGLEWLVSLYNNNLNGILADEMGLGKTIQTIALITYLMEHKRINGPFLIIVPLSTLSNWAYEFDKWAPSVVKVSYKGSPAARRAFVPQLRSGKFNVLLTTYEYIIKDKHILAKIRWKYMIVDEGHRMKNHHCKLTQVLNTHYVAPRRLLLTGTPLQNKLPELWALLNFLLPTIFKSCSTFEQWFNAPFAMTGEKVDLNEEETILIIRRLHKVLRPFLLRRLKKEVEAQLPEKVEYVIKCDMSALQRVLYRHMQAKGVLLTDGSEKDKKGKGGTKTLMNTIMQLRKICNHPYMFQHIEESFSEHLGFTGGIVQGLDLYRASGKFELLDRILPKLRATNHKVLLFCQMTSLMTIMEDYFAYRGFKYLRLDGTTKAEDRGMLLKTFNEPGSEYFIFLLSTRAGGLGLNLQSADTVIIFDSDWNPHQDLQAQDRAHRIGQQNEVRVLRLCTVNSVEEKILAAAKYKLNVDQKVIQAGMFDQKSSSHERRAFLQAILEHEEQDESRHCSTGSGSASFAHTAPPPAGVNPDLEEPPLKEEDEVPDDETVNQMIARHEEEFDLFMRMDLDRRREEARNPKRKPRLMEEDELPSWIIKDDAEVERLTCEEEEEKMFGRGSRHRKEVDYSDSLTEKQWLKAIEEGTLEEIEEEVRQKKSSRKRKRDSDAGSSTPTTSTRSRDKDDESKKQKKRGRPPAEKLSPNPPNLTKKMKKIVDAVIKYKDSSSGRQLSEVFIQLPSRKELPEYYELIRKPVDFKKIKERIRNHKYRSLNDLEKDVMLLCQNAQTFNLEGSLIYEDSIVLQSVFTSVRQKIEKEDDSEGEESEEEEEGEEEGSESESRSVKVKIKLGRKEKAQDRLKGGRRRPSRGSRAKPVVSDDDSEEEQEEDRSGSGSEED
TEST SUMMARY: SMARCA4 degradation in HeLa cells (Western blot)
Format: cell-based
Parameters: endogenous in cells
EXPERIMENTAL PARAMETERS: 80 nM, 4 hours, read-out: Degradation rate of SMARCA4 in HeLa cells (%)
QUANTITY NAME: Dmax at 0.08 µM (%)
Entry rule: numbers only, all in %.

# get_value(readout='Dmax at 0.08 µM', item= Cn1c(=O)n(C2CCC(=O)NC2=O)c2cc3c(cc21)C1(CCN(C(=O)[C@H]2CC[C@H](Cn4cc(-c5cc(-c6ccccc6O)nnc5N)cn4)CC2)CC1)CO3 (stereo partly drawn) )
99

# get_value(readout='Dmax at 0.08 µM', item= Cn1c(=O)n(C2CCC(=O)NC2=O)c2ccc3c(c21)OCC31CCN(C(=O)[C@H]2CC[C@H](Cn3cc(-c4cc(-c5ccccc5O)nnc4N)cn3)CC2)CC1 (stereo partly drawn) )
79

# get_value(readout='Dmax at 0.08 µM', item= Nc1nnc(-c2ccccc2O)cc1C#CC1CCC2(CC1)CC(N1CCC3(CC1)Cc1ccc(NC4CCC(=O)NC4=O)cc1O3)C2 (stereo not drawn) )
42

---

TEST SYSTEM: SMARCA2 (Homo sapiens, UniProt P51531)
Sequence (P51531 whole entry): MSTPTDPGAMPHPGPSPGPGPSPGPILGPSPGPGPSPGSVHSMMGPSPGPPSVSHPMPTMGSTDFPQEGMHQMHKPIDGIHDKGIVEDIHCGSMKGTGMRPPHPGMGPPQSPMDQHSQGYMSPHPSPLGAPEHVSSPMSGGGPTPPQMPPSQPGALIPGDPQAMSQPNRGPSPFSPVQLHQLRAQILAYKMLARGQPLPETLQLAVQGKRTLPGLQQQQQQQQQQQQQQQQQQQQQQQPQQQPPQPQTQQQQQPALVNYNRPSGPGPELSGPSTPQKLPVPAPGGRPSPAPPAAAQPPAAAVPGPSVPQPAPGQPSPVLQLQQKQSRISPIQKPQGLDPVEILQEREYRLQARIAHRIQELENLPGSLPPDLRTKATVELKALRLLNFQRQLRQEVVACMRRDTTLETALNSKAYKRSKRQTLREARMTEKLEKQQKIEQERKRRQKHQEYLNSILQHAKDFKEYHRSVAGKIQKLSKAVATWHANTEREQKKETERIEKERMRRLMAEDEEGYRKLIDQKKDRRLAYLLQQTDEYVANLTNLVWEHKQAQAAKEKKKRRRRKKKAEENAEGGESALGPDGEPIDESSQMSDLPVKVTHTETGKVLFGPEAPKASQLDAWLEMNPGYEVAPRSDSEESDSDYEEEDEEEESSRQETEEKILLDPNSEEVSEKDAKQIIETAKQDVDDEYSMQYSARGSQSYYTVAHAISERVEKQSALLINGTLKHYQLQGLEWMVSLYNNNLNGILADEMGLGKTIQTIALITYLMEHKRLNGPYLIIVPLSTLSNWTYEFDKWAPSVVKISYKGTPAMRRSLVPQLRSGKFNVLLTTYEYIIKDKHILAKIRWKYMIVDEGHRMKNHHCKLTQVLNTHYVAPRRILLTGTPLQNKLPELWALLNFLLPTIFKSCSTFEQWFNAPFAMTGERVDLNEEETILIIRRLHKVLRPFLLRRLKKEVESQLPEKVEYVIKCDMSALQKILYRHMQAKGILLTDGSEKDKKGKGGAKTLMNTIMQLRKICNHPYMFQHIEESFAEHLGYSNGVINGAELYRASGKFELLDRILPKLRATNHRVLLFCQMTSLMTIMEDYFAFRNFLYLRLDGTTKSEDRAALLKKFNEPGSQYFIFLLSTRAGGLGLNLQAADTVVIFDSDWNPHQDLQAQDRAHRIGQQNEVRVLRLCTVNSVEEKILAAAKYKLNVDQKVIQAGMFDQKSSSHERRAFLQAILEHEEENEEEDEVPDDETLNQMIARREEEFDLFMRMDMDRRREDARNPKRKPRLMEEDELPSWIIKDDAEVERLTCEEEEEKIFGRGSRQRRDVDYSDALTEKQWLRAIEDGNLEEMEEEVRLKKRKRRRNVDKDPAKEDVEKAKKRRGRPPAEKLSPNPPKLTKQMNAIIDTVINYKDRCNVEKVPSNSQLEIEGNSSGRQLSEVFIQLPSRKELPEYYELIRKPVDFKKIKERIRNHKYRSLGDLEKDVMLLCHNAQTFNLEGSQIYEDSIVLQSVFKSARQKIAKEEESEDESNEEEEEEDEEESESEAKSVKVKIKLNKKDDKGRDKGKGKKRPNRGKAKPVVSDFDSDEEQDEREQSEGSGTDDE
TEST SUMMARY: SMARCA2 degradation in SW1573 cells (Western blot)
Format: cell-based
Set-up: endogenous in cells; host or cells: SW1573
EXPERIMENTAL PARAMETERS: 80 nM, 24 hours
Protocol: Test Example 10 Degradation rate (%) of SMARCA2/4 by the PROTAC compounds of the present invention in HeLa cells and SW1573 cells SW1573 cells were seeded at 2x10^5Cells/well in a 6-well plate. […] After 24 hours, cells were harvested, the medium was aspirated, and the cells were rinsed once with 1 mL/well PBS. […] After lysis and centrifugation, total protein extracts were obtained, and protein concentration in the extracts was determined by BCA assay. […]
Rule: measured Degradation rate of SMARCA2 in SW1573 cells (%) below 80% gets 1 (yes); anything equal to or greater than 80% gets 0 (no).

Is 80% strictly greater than the molecule's reported Degradation rate of SMARCA2 in SW1573 cells (%)? molecule: Cn1c(=O)n(C2CCC(=O)NC2=O)c2cc3c(cc21)C1(CCN(C(=O)[C@H]2CC[C@H](Cn4cc(-c5cc(-c6ccccc6O)nnc5N)cn4)CC2)CC1)CO3 (stereo partly drawn) [SM-P-28]
1 (yes)

Is 80% strictly greater than the molecule's reported Degradation rate of SMARCA2 in SW1573 cells (%)? molecule: Nc1nnc(-c2ccccc2O)cc1C#CC1CCC2(CC1)CC(N1CCN3c4cc(NC5CCC(=O)NC5=O)ccc4OCC[C@H]3C1)C2 (stereo partly drawn) [SM-P-17]
1 (yes)

Is 80% strictly greater than the molecule's reported Degradation rate of SMARCA2 in SW1573 cells (%)? molecule: Cn1c(=O)n(C2CCC(=O)NC2=O)c2cc3c(cc21)C1(CCN(C[C@H]2CC[C@H](n4cc(-c5cc(-c6ccccc6O)nnc5N)cn4)CC2)CC1)CO3 (stereo partly drawn) [SM-P-36]
0 (no)

Is 80% strictly greater than the molecule's reported Degradation rate of SMARCA2 in SW1573 cells (%)? molecule: Nc1nnc(-c2ccccc2O)cc1C#CC1CCC2(CC1)CC(N1CCC3(CCc4cc(C(=O)N[C@H]5CCC(=O)NC5=O)c(F)cc4O3)CC1)C2 (stereo partly drawn) [SM-P-7]
1 (yes)

Is 80% strictly greater than the molecule's reported Degradation rate of SMARCA2 in SW1573 cells (%)? molecule: COc1cc2c(cc1C(=O)N[C@H]1CCC(=O)NC1=O)C1(CCN(C3CC4(CCC(C#Cc5cc(-c6ccccc6O)nnc5N)CC4)C3)CC1)CO2 (stereo partly drawn) [SM-P-14]
1 (yes)

Is 80% strictly greater than the molecule's reported Degradation rate of SMARCA2 in SW1573 cells (%)? molecule: Cn1c(=O)n(C2CCC(=O)NC2=O)c2cc3c(cc21)C1(CCN(C[C@H]2CC[C@H](Cn4cc(-c5cc(-c6ccccc6O)nnc5N)cn4)CC2)CC1)CO3 (stereo partly drawn) [SM-P-30]
0 (no)

Is 80% strictly greater than the molecule's reported Degradation rate of SMARCA2 in SW1573 cells (%)? molecule: Cn1c(=O)n(C2CCC(=O)NC2=O)c2ccc3c(c21)OCC31CCN(C(=O)[C@H]2CC[C@H](Cn3cc(-c4cc(-c5ccccc5O)nnc4N)cn3)CC2)CC1 (stereo partly drawn) [SM-P-27]
0 (no)

Is 80% strictly greater than the molecule's reported Degradation rate of SMARCA2 in SW1573 cells (%)? molecule: Cn1c(=O)n(C2CCC(=O)NC2=O)c2ccc3c(c21)OCC31CCN(C2CC3(CCC(C#Cc4cc(-c5ccccc5O)nnc4N)CC3)C2)CC1 (stereo not drawn) [SM-P-26]
0 (no)

Is 80% strictly greater than the molecule's reported Degradation rate of SMARCA2 in SW1573 cells (%)? molecule: Nc1nnc(-c2ccccc2O)cc1C#CC1CCC2(CC1)CC(N1CCC3(CC1)Cc1ccc(NC4CCC(=O)NC4=O)cc1O3)C2 (stereo not drawn) [SM-P-25]
1 (yes)

Is 80% strictly greater than the molecule's reported Degradation rate of SMARCA2 in SW1573 cells (%)? molecule: Nc1nnc(-c2ccccc2O)cc1C#CC1CCC2(CC1)CC(N1CCC3(CC1)CCC1(CC3)COc3c1ccc1c3CN(C3CCC(=O)NC3=O)C1=O)C2 (stereo not drawn) [SM-P-2]
0 (no)

Is 80% strictly greater than the molecule's reported Degradation rate of SMARCA2 in SW1573 cells (%)? molecule: Cc1ncsc1-c1ccc([C@H](C)NC(=O)[C@@H]2C[C@@H](O)CN2C(=O)[C@@H](NC(=O)[C@H]2CC[C@H](CN3CC4(CCC(n5cc(-c6cc(-c7ccccc7O)nnc6N)cn5)CC4)C3)CC2)C(C)(C)C)cc1 [SMD-3040, reference compound]
0 (no)

Is 80% strictly greater than the molecule's reported Degradation rate of SMARCA2 in SW1573 cells (%)? molecule: Nc1nnc(-c2ccccc2O)cc1C#CC1CCC2(CC1)CC(N1CCC3(CC1)COc1c3ccc(F)c1C(=O)N[C@H]1CCC(=O)NC1=O)C2 (stereo partly drawn) [SM-P-19]
1 (yes)

---

Exercise: state measured Degradation rate of ERα in MCF-7 cells (%) for each of the compounds provided.
TEST SYSTEM: ERα (Homo sapiens)
Sequence (P03372 1-595): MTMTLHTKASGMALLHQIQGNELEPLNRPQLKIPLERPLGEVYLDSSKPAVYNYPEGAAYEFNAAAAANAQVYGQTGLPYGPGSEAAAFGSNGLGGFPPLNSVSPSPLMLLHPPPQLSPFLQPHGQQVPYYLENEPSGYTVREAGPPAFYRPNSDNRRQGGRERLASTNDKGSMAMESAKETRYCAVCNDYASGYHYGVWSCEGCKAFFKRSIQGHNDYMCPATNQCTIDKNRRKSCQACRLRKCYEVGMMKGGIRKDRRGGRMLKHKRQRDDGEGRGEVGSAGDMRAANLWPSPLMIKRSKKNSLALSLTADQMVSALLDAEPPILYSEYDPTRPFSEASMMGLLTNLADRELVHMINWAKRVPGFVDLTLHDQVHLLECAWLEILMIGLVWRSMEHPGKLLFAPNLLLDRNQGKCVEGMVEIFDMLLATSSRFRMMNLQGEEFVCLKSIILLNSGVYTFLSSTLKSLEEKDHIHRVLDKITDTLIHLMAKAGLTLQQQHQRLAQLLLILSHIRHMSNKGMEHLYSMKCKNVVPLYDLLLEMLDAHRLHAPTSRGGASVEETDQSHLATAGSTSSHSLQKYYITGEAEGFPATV
TEST SUMMARY: ERα degradation in MCF-7 cells (Western blot)
Assay type: cell-based
Set-up: host or cells: MCF-7
EXPERIMENTAL PARAMETERS: 1nM, 4 hours
Entry rule: numbers only, all in %.

# get_value(readout='Degradation rate of ERα in MCF-7 cells (%)', item= COc1cc2c(cc1C(=O)N[C@H]1CCC(=O)NC1=O)OCC[C@H]1CN(CC3CCC(OC4CCN(c5ccc([C@@H]6c7ccc(O)cc7CC[C@@H]6c6ccccc6)cc5)CC4)CC3)CCN21 (stereo partly shown) [ER-P-46] )
6

# get_value(readout='Degradation rate of ERα in MCF-7 cells (%)', item= O=C1CCC(N2Cc3c(ccc4c3OCC43CCC4(CC3)CN(C3CCC5(CC3)CN(c3ccc([C@@H]6c7ccc(O)cc7CC[C@@H]6c6ccccc6)cc3)C5)C4)C2=O)C(=O)N1 (stereo partly shown) [ER-P-10] )
24

# get_value(readout='Degradation rate of ERα in MCF-7 cells (%)', item= Cn1c(=O)n(C2CCC(=O)NC2=O)c2cc3c(cc21)C1(CCN(CC2CCC4(CC2)CCN(c2ccc([C@@H]5c6ccc(O)cc6CC[C@@H]5c5ccccc5)cc2)CC4)CC1)CO3 (stereo partly shown) [ER-P-62] )
14

# get_value(readout='Degradation rate of ERα in MCF-7 cells (%)', item= Cn1c(=O)n(C2CCC(=O)NC2=O)c2cc3c(cc21)C1(CCN(C2CCN(C(=O)C4CCN(c5ccc([C@@H]6c7ccc(O)cc7CC[C@@H]6c6ccccc6)cc5)CC4)CC2)CC1)CO3 (stereo partly shown) [ER-P-14] )
69

# get_value(readout='Degradation rate of ERα in MCF-7 cells (%)', item= C[C@@H]1Cc2cc(O)ccc2C(c2c(F)cc(N3CCC4(CCC(N5CCC6(CC5)COc5c6ccc6c5n(C)c(=O)n6C5CCC(=O)NC5=O)CC4)CC3)cc2F)N1CC(F)F (stereo partly shown) [ER-P-29] )
54

# get_value(readout='Degradation rate of ERα in MCF-7 cells (%)', item= O=C1CCC(N2Cc3c(ccc4c3OCC43CCC4(CC3)CN(C3CCN(C(=O)C5CCN(c6ccc([C@@H]7c8ccc(O)cc8CC[C@@H]7c7ccccc7)cc6)CC5)CC3)C4)C2=O)C(=O)N1 (stereo partly shown) [ER-P-6] )
55

# get_value(readout='Degradation rate of ERα in MCF-7 cells (%)', item= O=C1CC[C@H](NC(=O)c2ccc3c(c2F)OCC32CCN(C3CC4(CCN(c5ccc([C@@H]6c7ccc(O)cc7CC[C@@H]6c6ccccc6)cc5)CC4)C3)CC2)C(=O)N1 [ER-P-37] )
-6

# get_value(readout='Degradation rate of ERα in MCF-7 cells (%)', item= CN(C(=O)CN1CCC2(CC1)COc1c2ccc(F)c1C(=O)N[C@H]1CCC(=O)NC1=O)C1CCC2(CC1)CN(c1ccc([C@@H]3c4ccc(O)cc4CC[C@@H]3c3ccccc3)cc1)C2 [ER-P-40] )
-10

# get_value(readout='Degradation rate of ERα in MCF-7 cells (%)', item= O=C1CCC(N2Cc3c(ccc4c3OCC43CCC4(CC3)CN(C3CCC5(CC3)CCN(c3ccc([C@@H]6c7ccc(O)cc7CC[C@@H]6c6ccccc6)cc3)CC5)C4)C2=O)C(=O)N1 (stereo partly shown) [ER-P-9] )
30

# get_value(readout='Degradation rate of ERα in MCF-7 cells (%)', item= O=C1CC[C@H](NC(=O)c2ccc3c(c2)OCC[C@H]2CN(CC4CCC(OC5CCN(c6ccc([C@@H]7c8ccc(O)cc8CC[C@@H]7c7ccccc7)cc6)CC5)CC4)CCN32)C(=O)N1 (stereo partly shown) [ER-P-44] )
10

# get_value(readout='Degradation rate of ERα in MCF-7 cells (%)', item= O=C1CC[C@H](NC(=O)c2ccc3c(c2)OCC[C@H]2CN(CC4CCC(OC5CCN(c6ccc([C@@H]7c8ccc(O)cc8CC[C@@H]7c7ccccc7)cc6)CC5)CC4)CCN32)C(=O)N1 (stereo partly shown) [ER-P-45] )
-15

# get_value(readout='Degradation rate of ERα in MCF-7 cells (%)', item= C[C@@H]1Cc2cc(O)ccc2C(c2c(F)cc(N3CCC4(CC3)CC(N3CC5(CCC6(CC5)COc5c6ccc6c5CN(C5CCC(=O)NC5=O)C6=O)C3)C4)cc2F)N1CC(F)F (stereo partly shown) [ER-P-28] )
38

# get_value(readout='Degradation rate of ERα in MCF-7 cells (%)', item= Cn1c(=O)n(C2CCC(=O)NC2=O)c2cc3c(cc21)OC1(CC3)CCN(C[C@H]2CC[C@@H](OC3CCN(c4ccc([C@@H]5c6ccc(O)cc6CC[C@@H]5c5ccccc5)cc4)CC3)CC2)CC1 (stereo partly shown) [ER-P-65] )
21
